# TEST TARGET: Progesterone receptor (Homo sapiens)
# EXPERIMENT SUMMARY: Agonist activity at human PRB expressed in CHO cells
MEASURED PARAMETER: EC50 (nM)
Give just the number in nM; leave the unit off.

[[record]]
molecule = "C[C@@H]1C[C@H]2[C@@H]3CCC4=CC(=O)CCC4=C3[C@@H](c3ccc(-c4ccnnc4)cc3)C[C@]2(C)[C@H]1C(=O)C1CC1"
unit_label = "nM"
reported_measurement = 0.36

[[record]]
molecule = "COc1ccc(-c2ccc([C@H]3C[C@@]4(C)[C@@H](CCC45CCCC5=O)[C@@H]4CCC5=CC(=O)CCC5=C43)cc2)cn1 (stereo not given in full)"
unit_label = "nM"
reported_measurement = 0.15


Consider the record given below.
[in] Which EC50 value is on record for C[C@]12C[C@H](c3ccc(-c4cccnc4)cc3)C3=C4CCC(=O)C=C4CC[C@H]3[C@@H]1CCC21CCCC1=O (stereo not given in full) ?
[out] 0.29

###

List of IC50 values.
# TEST TARGET: Progesterone receptor (Homo sapiens, UniProt P06401)
# EXPERIMENT SUMMARY: Antagonist activity at human PRB expressed in CHO cells assessed as inhibition of Org 2058 induced-transactivation
# Assay type: functional, cell-based
Give just the number in nM; leave the unit off.

[[record]]
compound = "C[C@@H]1C[C@H]2[C@@H]3CCC4=CC(=O)CCC4=C3[C@@H](c3ccc(-c4cnccn4)cc3)C[C@]2(C)[C@H]1C(=O)C1CC1"
test_target = "Progesterone receptor (Homo sapiens, UniProt P06401)"
reported_measurement = 1.3

[[record]]
compound = "C[C@]12C[C@H](c3ccc(-c4cccnc4)cc3)C3=C4CCC(=O)C=C4CC[C@H]3[C@@H]1CC[C@@H]2C(=O)C1CC1"
test_target = "Progesterone receptor (Homo sapiens, UniProt P06401)"
reported_measurement = 0.75

[[record]]
compound = "CC[C@@H]1C[C@H]2[C@@H]3CCC4=CC(=O)CCC4=C3[C@@H](c3ccc(-c4ccc(OC)nc4)cc3)C[C@]2(C)[C@H]1C(=O)C1CC1"
test_target = "Progesterone receptor (Homo sapiens, UniProt P06401)"
reported_measurement = 7.89


[in] Which IC50 value is on record for C[C@@H]1C[C@H]2[C@@H]3CCC4=CC(=O)CCC4=C3[C@@H](c3ccc(-c4ncccn4)cc3)C[C@]2(C)[C@H]1C(=O)C1CC1 ?
[out] 3.25

###

# TEST TARGET: Progesterone receptor (Homo sapiens) (UniProt P06401)
# Sequence (whole entry): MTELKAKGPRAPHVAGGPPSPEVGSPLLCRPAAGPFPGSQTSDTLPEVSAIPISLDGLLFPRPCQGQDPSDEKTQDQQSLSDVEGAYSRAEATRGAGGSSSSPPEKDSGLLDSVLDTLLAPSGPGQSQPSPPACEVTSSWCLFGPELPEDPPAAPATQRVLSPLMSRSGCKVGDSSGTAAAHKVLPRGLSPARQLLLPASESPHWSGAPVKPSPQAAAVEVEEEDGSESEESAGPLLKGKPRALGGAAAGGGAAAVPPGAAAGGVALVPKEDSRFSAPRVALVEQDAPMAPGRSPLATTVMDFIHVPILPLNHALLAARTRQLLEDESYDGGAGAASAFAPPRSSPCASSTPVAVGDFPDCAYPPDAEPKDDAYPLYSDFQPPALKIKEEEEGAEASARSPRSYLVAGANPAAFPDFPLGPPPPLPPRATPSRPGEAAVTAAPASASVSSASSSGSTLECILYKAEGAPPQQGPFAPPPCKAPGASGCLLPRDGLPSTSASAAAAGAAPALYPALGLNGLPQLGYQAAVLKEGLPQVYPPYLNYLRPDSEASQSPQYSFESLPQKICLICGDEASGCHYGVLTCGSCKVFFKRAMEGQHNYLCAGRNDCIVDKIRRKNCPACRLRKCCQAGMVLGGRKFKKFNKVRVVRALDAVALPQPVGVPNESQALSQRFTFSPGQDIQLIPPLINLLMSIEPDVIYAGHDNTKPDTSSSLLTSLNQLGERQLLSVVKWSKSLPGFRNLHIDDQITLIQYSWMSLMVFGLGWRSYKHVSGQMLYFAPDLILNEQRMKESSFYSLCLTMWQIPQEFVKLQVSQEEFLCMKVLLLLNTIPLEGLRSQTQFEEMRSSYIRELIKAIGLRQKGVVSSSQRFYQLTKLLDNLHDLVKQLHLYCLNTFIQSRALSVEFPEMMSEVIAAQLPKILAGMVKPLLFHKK
# EXPERIMENT SUMMARY: Antagonist activity at human PRB expressed in CHO cells assessed as inhibition of Org 2058 induced-transactivation relative to Org 31710
# Format: functional, cell-based
MEASURED PARAMETER: Efficacy (%)
Give just the number in %; leave the unit off.

[[record]]
molecule = "C[C@@H]1C[C@H]2[C@@H]3CCC4=CC(=O)CCC4=C3[C@@H](c3ccc(-c4ccncc4)cc3)C[C@]2(C)[C@H]1C(=O)C1CC1"
reported_measurement = 27

[[record]]
molecule = "CC[C@@H]1C[C@H]2[C@@H]3CCC4=CC(=O)CCC4=C3[C@@H](c3ccc(-c4cccnc4)cc3)C[C@]2(C)[C@H]1C(=O)C1CC1"
reported_measurement = 53

[[record]]
molecule = "C[C@@H]1C[C@H]2[C@@H]3CCC4=CC(=O)CCC4=C3[C@@H](c3ccc(-c4cnc5ccccc5c4)cc3)C[C@]2(C)[C@H]1C(=O)C1CC1"
reported_measurement = 24


[in] Which Efficacy value is on record for COc1ccc(-c2ccc([C@H]3C[C@@]4(C)[C@@H](CCC45CCCC5=O)[C@@H]4CCC5=CC(=O)CCC5=C43)cc2)cn1 (stereo partly drawn) ?
[out] 62

[in] Which Efficacy value is on record for C[C@@H]1C[C@H]2[C@@H]3CCC4=CC(=O)CCC4=C3[C@@H](c3ccc(-c4ccnnc4)cc3)C[C@]2(C)[C@H]1C(=O)C1CC1 ?
[out] 37

[in] Which Efficacy value is on record for C[C@@H]1C[C@H]2[C@@H]3CCC4=CC(=O)CCC4=C3[C@@H](c3ccc(-c4cnccn4)cc3)C[C@]2(C)[C@H]1C(=O)C1CC1 ?
[out] 35

[in] Which Efficacy value is on record for COc1ccc(-c2ccc([C@H]3C[C@@]4(C)[C@@H](C[C@@H](C)[C@@H]4C(=O)C4CC4)[C@@H]4CCC5=CC(=O)CCC5=C43)cc2)cn1 ?
[out] 59

[in] Which Efficacy value is on record for C[C@@H]1C[C@H]2[C@@H]3CCC4=CC(=O)CCC4=C3[C@@H](c3ccc(-c4ccc(Cl)nc4)cc3)C[C@]2(C)[C@H]1C(=O)C1CC1 ?
[out] 43

###

# TEST TARGET: Progesterone receptor (Homo sapiens, UniProt P06401)
# EXPERIMENT SUMMARY: Antagonist activity at human PRB expressed in CHO cells assessed as inhibition of Org 2058 induced-transactivation
# Type: functional, cell-based
MEASURED PARAMETER: pIC50
In plain terms, pIC50 is the concentration in mol/L turned into minus its base-10 logarithm.

Some compounds with recorded pIC50:
[[record]]
compound = "C[C@@H]1C[C@H]2[C@@H]3CCC4=CC(=O)CCC4=C3[C@@H](c3ccc(-c4cnc5ccccc5c4)cc3)C[C@]2(C)[C@H]1C(=O)C1CC1"
reported_measurement = 8.50

[[record]]
compound = "CC[C@@H]1C[C@H]2[C@@H]3CCC4=CC(=O)CCC4=C3[C@@H](c3ccc(-c4cccnc4)cc3)C[C@]2(C)[C@H]1C(=O)C1CC1"
reported_measurement = 9.22


Consider the record given below.
[in] Which pIC50 value is on record for C[C@@H]1C[C@H]2[C@@H]3CCC4=CC(=O)CCC4=C3[C@@H](c3ccc(-c4cccnc4)cc3)C[C@]2(C)[C@H]1C(=O)C1CC1 ?
[out] 9.57

###

List of pIC50 values.
# TEST TARGET: Progesterone receptor (Homo sapiens, UniProt P06401)
# EXPERIMENT SUMMARY: Antagonist activity at human PRB expressed in CHO cells assessed as inhibition of Org 2058 induced-transactivation
# Type: functional, cell-based
In plain terms, pIC50 is the concentration in mol/L turned into minus its base-10 logarithm.

[in] Which pIC50 value is on record for C[C@@H]1C[C@H]2[C@@H]3CCC4=CC(=O)CCC4=C3[C@@H](c3ccc(-c4ccc(F)nc4)cc3)C[C@]2(C)[C@H]1C(=O)C1CC1 ?
[out] 8.07

[in] Which pIC50 value is on record for C[C@@H]1C[C@H]2[C@@H]3CCC4=CC(=O)CCC4=C3[C@@H](c3ccc(-c4ccnnc4)cc3)C[C@]2(C)[C@H]1C(=O)C1CC1 ?
[out] 8.44

[in] Which pIC50 value is on record for C[C@@H]1C[C@H]2[C@@H]3CCC4=CC(=O)CCC4=C3[C@@H](c3ccc(-c4ccccn4)cc3)C[C@]2(C)[C@H]1C(=O)C1CC1 ?
[out] 7.83

[in] Which pIC50 value is on record for C[C@]12C[C@H](c3ccc(-c4cccnc4)cc3)C3=C4CCC(=O)C=C4CC[C@H]3[C@@H]1CC[C@]2(C)C(=O)C1CC1 ?
[out] 9.89
